Ref: BindingDB's records for doi:10.7270/Q2TX3CSC

- SYSTEM: Solute carrier family 12 member 5 (Homo sapiens, UniProt Q9H2X9)
- TEST PROTOCOL: concentration-response of KCC2 transport modulators – cell-based, HEK293 KCC2, FluoZin-2 fluorescence, dose response (AID 1736)
pEC50 overview
Convention used: pEC50 is expressed as -log10 of the molar concentration.

// query # value lookup — system Solute carrier family 12 member 5 (Homo sapiens, UniProt Q9H2X9), readout pEC50, item Cc1ccc(/C=C2\SC(=S)N(c3c(C)n(C)n(-c4ccccc4)c3=O)C2=O)cc1
// result 6.89

// query Follow-up item: O=S(=O)(NCCc1ccccc1F)c1cccc(S(=O)(=O)N2CCOCC2)c1
// result 5.78

---

- SYSTEM: Solute carrier family 12 member 5 (Homo sapiens)
- Sequence (Q9H2X9 whole entry): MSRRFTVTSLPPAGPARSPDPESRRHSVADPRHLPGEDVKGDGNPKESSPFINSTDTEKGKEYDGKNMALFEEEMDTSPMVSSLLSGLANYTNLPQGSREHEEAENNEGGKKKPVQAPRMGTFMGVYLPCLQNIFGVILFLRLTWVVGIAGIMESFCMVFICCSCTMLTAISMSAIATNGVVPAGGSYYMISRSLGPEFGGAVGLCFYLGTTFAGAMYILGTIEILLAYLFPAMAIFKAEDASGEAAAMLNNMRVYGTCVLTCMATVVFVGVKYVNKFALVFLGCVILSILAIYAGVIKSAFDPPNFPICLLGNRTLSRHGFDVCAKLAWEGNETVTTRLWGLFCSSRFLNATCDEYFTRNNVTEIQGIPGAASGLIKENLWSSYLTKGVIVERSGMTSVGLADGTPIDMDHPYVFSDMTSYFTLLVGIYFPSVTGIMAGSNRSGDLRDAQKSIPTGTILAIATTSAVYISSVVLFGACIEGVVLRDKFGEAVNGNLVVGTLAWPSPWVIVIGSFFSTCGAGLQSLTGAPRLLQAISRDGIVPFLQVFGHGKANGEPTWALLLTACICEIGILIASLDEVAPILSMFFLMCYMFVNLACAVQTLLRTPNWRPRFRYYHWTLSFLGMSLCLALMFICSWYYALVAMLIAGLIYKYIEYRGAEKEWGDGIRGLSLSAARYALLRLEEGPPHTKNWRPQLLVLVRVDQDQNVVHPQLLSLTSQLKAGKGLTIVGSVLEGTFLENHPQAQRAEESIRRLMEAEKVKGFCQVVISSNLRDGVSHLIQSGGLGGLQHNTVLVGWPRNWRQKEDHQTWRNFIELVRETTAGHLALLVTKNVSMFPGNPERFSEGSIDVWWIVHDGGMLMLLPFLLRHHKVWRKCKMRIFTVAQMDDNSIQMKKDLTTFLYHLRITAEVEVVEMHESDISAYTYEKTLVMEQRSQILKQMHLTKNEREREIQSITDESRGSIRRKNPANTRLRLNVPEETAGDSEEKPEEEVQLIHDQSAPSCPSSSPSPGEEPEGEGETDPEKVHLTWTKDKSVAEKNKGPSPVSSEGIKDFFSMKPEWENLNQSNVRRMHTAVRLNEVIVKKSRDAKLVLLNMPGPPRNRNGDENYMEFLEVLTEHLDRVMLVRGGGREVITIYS
- TEST PROTOCOL: concentration-response of KCC2 transport modulators – cell-based, HEK293 KCC2, FluoZin-2 fluorescence, dose response (AID 1736)
Parameter EC50: see the listing below.
The figure you give is taken to be in µM; do not add the unit.

Known EC50 results, listed for orientation:
O=C(COC(=O)c1cc([N+](=O)[O-])ccc1NCCO)c1ccccc1
9.16
O=C(CCSCCc1ccccn1)Nc1ccc(Cc2ccncc2)cc1
9.8
CC(=O)NCCC(=O)N1CCCC(CNC(=O)c2ccc(-c3ccccc3)cc2)C1 (stereo not given) [MLS000733794]
5

// query I am curious: what EC50 value has been reported for CNC(=O)/C(=C\C=C\c1ccccc1)NC(=O)c1ccc([N+](=O)[O-])cc1 [MLS000570424] ?
// result 2.8

// query Also CCC(Cc1ccccc1)NC(=O)CN(C)S(=O)(=O)c1ccc2c(c1)c(=O)n(C)c(=O)n2C (stereo not given) ?
// result 7.26

---

- SYSTEM: UniProt:Q9H2X9
- Sequence (Q9H2X9 whole entry): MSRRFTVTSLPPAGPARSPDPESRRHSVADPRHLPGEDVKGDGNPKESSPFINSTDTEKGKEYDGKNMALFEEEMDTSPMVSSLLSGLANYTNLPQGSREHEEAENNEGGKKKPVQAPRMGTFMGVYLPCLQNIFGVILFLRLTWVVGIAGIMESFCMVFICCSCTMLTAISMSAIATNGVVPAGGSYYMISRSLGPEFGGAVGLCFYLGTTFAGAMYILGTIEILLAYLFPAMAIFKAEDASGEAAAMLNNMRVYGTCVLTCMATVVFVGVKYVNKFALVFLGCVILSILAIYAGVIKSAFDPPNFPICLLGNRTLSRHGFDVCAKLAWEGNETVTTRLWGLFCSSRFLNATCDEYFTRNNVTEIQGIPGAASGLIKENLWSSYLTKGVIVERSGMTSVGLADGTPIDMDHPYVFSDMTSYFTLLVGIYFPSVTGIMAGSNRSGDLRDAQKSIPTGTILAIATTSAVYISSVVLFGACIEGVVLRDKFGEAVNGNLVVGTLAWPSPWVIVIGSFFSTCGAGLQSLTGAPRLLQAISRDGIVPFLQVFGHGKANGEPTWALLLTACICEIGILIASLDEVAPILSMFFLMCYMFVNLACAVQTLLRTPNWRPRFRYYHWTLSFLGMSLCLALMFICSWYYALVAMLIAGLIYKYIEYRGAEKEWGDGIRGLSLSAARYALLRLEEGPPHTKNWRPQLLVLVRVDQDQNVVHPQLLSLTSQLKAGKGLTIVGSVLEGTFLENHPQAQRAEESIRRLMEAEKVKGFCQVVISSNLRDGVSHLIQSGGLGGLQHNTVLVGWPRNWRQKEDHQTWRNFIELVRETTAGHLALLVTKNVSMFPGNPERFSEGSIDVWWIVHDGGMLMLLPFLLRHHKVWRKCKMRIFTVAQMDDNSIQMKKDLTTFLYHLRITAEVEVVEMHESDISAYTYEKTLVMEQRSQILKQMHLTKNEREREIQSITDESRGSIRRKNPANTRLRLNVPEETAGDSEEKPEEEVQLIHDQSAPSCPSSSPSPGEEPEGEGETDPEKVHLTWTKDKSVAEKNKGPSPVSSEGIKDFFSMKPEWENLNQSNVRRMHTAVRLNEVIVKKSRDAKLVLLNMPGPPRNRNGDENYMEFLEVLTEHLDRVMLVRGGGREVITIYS
- TEST PROTOCOL: concentration-response of KCC2 transport modulators – cell-based, HEK293 KCC2, FluoZin-2 fluorescence, dose response (AID 1736)
Attribute: log10(EC50)
A difference of one corresponds to tenfold EC50; all values are log10 with EC50 in µM.

Look over these answered cases.
O=C(/C=C/c1ccco1)N1CCC(Cc2ccccc2)CC1
0.82
Cc1ccc(/C=C2\SC(=S)N(/N=C/C3C=C([N+](=O)[O-])C=CC3=O)C2=O)o1 (stereo not given)
1.07
C=C(C)Cn1c(N2CCC(Cc3ccccc3)CC2)nc2c1c(=O)[nH]c(=O)n2C
1.31
CCCCNc1cc(C(=O)O)cc(S(N)(=O)=O)c1Oc1ccccc1
-4.33
O=C(NCCc1csc(-c2ccccc2)n1)c1cccs1
2.24

// query Give the measured log10(EC50) of CCOc1cc(Br)ccc1S(=O)(=O)NCc1ccccc1 .
// result 1.17

// query Note, next up: CN(CC(=O)N1CCN(Cc2ccccc2)CC1)S(=O)(=O)c1cccc2nsnc12
// result -0.24

// query Now the compound CC1Cc2ccccc2N1C(=O)CSc1nnc(CNc2ccccc2)o1 (stereo not given)
// result -0.03

// query Moving on to O=C(Nc1ccc(Cc2ccncc2)cc1)c1cccc([N+](=O)[O-])c1
// result 1.18

// query Param item: O=C(NN1C(=O)/C(=C/c2nc3ccccc3[nH]2)SC1=S)c1ccccc1
// result -0.42

---

We begin with a simple list: items and their reported pEC50.
- SYSTEM: Solute carrier family 12 member 5 (Homo sapiens, UniProt Q9H2X9)
- Sequence (Q9H2X9 whole entry): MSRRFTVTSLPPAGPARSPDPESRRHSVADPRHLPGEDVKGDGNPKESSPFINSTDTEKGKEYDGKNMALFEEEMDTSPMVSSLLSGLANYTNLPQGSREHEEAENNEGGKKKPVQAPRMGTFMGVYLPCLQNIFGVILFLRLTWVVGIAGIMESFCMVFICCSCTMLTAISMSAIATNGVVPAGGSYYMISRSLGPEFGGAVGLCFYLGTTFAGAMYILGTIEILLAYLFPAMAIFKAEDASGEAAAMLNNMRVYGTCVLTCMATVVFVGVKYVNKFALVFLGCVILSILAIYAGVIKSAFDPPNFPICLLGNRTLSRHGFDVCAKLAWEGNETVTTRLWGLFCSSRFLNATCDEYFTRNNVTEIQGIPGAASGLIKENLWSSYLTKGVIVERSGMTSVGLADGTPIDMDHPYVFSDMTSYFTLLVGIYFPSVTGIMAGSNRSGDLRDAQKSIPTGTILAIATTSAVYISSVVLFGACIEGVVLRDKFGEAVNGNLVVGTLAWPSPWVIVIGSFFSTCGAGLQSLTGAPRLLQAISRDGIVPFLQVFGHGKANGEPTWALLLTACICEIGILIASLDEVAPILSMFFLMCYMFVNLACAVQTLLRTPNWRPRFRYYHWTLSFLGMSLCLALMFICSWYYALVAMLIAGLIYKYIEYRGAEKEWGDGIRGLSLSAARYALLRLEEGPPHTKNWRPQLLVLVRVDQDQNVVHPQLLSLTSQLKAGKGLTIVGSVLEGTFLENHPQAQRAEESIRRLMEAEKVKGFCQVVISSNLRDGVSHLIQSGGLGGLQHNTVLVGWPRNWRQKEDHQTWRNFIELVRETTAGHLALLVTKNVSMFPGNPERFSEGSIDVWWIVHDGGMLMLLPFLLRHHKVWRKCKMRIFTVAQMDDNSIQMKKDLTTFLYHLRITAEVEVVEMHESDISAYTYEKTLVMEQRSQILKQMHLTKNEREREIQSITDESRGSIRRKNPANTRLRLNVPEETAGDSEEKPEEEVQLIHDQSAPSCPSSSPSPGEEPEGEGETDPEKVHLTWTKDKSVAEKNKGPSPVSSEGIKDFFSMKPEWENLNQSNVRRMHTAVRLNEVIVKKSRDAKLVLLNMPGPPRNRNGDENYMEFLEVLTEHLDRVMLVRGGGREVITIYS
- TEST PROTOCOL: concentration-response of KCC2 transport modulators – cell-based, HEK293 KCC2, FluoZin-2 fluorescence, dose response (AID 1736)
// scale note: pEC50 = -log10(conc_M); give the bare number

Previously resolved entries follow.
O=S(=O)(NCc1ccccc1)c1ccc(Cl)c(S(=O)(=O)NCc2ccccc2)c1
5.63
CCCCCC(=O)Cc1cc(O)cc2c1C(=O)Oc1cc(O)c(C(=O)O)c(CCCCC)c1O2
5.40
Cc1ccc2c(c1)nnn2C1CCN(S(=O)(=O)c2cccc(S(=O)(=O)N(C)C)c2)CC1 [MLS000033642]
5.47
COc1ccc(NC(=S)NC(N)=Nc2nc(C)c3ccccc3n2)cc1
5.34

// query Kindly state the measured pEC50 obtained for Sc1nnc(Nc2ccccc2)s1 [5-anilino-3H-1,3,4-thiadiazole-2-thione] with Solute carrier family 12 member 5 (Homo sapiens, UniProt Q9H2X9).
// result 5.55

// query Here is the next compound: O=C(CSc1nnc(C2CC2)n1Cc1ccccc1)c1cc2ccccc2o1
// result 4.67

// query Same question for Cc1ccc(C(=O)Nc2nc(=O)n(C(=O)c3ccccc3Cl)s2)cc1 [MLS000540480] please.
// result 5.43

// query Now consider CCn1c(CCNC(=O)c2cccs2)nnc1SCC(=O)Nc1nc(-c2ccccc2)cs1 [MLS000548611] and answer again.
// result 5.34

// query Again, but for O=[N+]([O-])c1ccccc1C=C[CH+][N-]n1c(-c2ccc(Cl)cc2)n[nH]c1=S [MLS000555506]
// result 4.63
